These measurements were taken from paper PMC8897968.

Test system: rabies virus CVS strain
assay-comment: microbe, parasite or virus in culture
Type: cell-based
condition: Lyssavirus rabies, read-out: IC50 values (anti-rabies, as worded in the text)
quantity-name: pIC50
To interpret pIC50, take it as minus log10 of a concentration measured in moles per litre.

// known answers, use as guide
compound: COc1ccc(-n2c3c/c(=N\C(C)C)c(Nc4ccc(F)cc4)cc-3nc3ccccc32)cn1 [Compound 15g]
pIC50: 5.85
//
compound: COc1ccc(-n2c3c/c(=N\C(C)C)c(Nc4cccc(F)c4)cc-3nc3ccccc32)cn1 [Compound 15f]
pIC50: 5.84
//
compound: CC(C)/N=c1\cc2n(-c3ccccc3)c3ccccc3nc-2cc1Nc1ccc(Cl)cc1
pIC50: 5.85
//
compound: CC(C)/N=c1\cc2n(-c3ccccc3)c3ccccc3nc-2cc1NCc1ccc(F)cc1
pIC50: 5.72
//
compound: CC(C)/N=c1\cc2n(-c3ccccc3)c3ccccc3nc-2cc1NCc1ccccc1
pIC50: 5.85

pIC50 in this record for `CC(C)/N=c1\cc2n(-c3ccc(Cl)cc3)c3ccccc3nc-2cc1NCc1ccc(Cl)cc1` : 6.12

pIC50 in this record for `CC(C)/N=c1\cc2n(-c3ccc(Cl)cc3)c3ccccc3nc-2cc1Nc1ccc(OC(F)(F)F)cc1` : 5.75
